Tested on: MALME-3M melanoma
Experiment Summary: NCI tumour cell line growth inhibition, 48 h
Property Measured: TGI

Compound | System Name | Readout Value
O=C(O)CCC(=O)c1ccc2ccc3cccc4ccc1c2c34 | MALME-3M melanoma | > 100 µM

Task item: Please report the recorded TGI for CC1CCC(O)(C(C)(C(=O)O)c2ccccc2)CC1 (stereo not drawn) .
Reply: > 100 µM

Task item: Please report the recorded TGI for CCOC(=O)c1c2c(n(Cc3ccccc3)c1C)-c1ccccc1C(=O)C2=O .
Reply: 29 µM

Task item: Please report the recorded TGI for COc1cc(N/N=C/C#N)cc(OC)c1OC .
Reply: > 10 µM

###

Tested on: SNB-75 CNS
Experiment Summary: NCI tumour cell line growth inhibition, 48 h
Property Measured: TGI

Task item: Give TGI (SNB-75 CNS) of the following compound: O=C(O)c1ccccc1CC1Cc2ccc3c(c2C1=O)CCC3 (centres undefined)
Reply: > 100 µM

Task item: Give TGI (SNB-75 CNS) of the following compound: Cn1cc(C2=C(c3cccnc3)C(=O)NC2=O)c2ccccc21
Reply: > 25 µM

Task item: Give TGI (SNB-75 CNS) of the following compound: CN(C)CCNC(=O)Cn1cc([N+](=O)[O-])c(=O)c2ccccc21
Reply: > 100 µM

Task item: Give TGI (SNB-75 CNS) of the following compound: Nc1ccc(N=Nc2ccc(-c3ccc(O)cc3)cc2)c2ccc(S(=O)(=O)O)cc12
Reply: > 100 µM

###

Test system: EKVX NSCLC
Experiment Summary: NCI tumour cell line growth inhibition, 48 h; in the data active means GI50 below about 0.43 µM; inactive means the rest
Outcome (select one): Y for active, N for inactive

Would you please look over these solved cases?
Compound | Label Value
O=C(CF)N(O)c1ccc(/C=C/c2ccccc2)cc1 | N
O=C(CN1CCN(c2ccc(Cl)cc2)CC1)N1CCN(c2nnc(-c3ccc(Cl)cc3)c(-c3ccc(Cl)cc3)n2)CC1 | N
COc1ccc(C2=NN(C(=O)c3cc(OC)c(OC)c(OC)c3)C(c3ccc(Cl)cc3)C2)cc1OC (centres undefined) | N
CCOC(=O)/C=C/c1cc2cc(-c3csc4ccccc34)ccc2[nH]1 | N
COc1cc2nccc(Oc3ccc(NC(=O)C4(C(=O)Nc5ccc(F)cc5)CC4)cc3)c2cc1Oc1ccc(N)cn1 | N
CC(=O)c1cc2c(cc1Nc1c3ccccc3nc3occ(Cl)c13)OCO2 | Y

Task item: Dear colleague, could you share the recorded outcome for CC/C=C\C/C=C\C[C@H](O)C/C=C1/C(=O)C=C[C@@H]1C/C=C\CCCC(=O)O when you have a moment?
Reply: N

Task item: Dear colleague, could you share the recorded outcome for CC(=O)OCC(=O)O[C@@H]1C[C@]2(C(C)C)O[C@@]1(C)[C@@H]1CC[C@@H](C)[C@H]1[C@@H]2OC(=O)/C=C/c1ccccc1 when you have a moment?
Reply: N

Task item: Dear colleague, could you share the recorded outcome for O=C(Nc1ccc(Cl)cc1F)c1cc(I)ccc1O when you have a moment?
Reply: N

###

TGI reference
Tested on: MCF7 breast
Experiment Summary: NCI tumour cell line growth inhibition, 48 h
I only need the number, in µM, no unit after it.

# count of solved cases: 5
Compound | Property Measured | Readout Value
CC[C@H](Nc1nc(N)nc(C)c1C#N)c1nc2cccc(NCc3ccc(C(=O)NO)cc3)c2c(=O)n1-c1ccccc1 | TGI | 9.06
COc1ccc(OC)c(C23CCCC(C2)N(C)CC3)c1 (configuration not stated) | TGI | 32.1
COc1ccc2nc3cc(Cl)ccc3c(N3CCN(c4ccnc(N5CCOCC5)n4)CC3)c2c1 | TGI | 4.9
CC1CCN(CCCCCOc2ccc3oc4cc(Cl)ccc4c(=O)c3c2)CC1 | TGI | 14.2
C=C1CCCCCCCCCCC12SCCC2CCCCSC (configuration not stated) | TGI | 39.3

Task item: Please report the recorded TGI for CCOC(=O)c1c2c(n(Cc3ccccc3)c1C)-c1ccccc1C(=O)C2=O .
Reply: 20.9

Task item: Please report the recorded TGI for O=C(CCCN1CCOCC1)Nc1ccc(Cn2nnc3c2C(=O)c2nnn(Cc4ccc(NC(=O)CCCN5CCOCC5)cc4)c2C3=O)cc1 .
Reply: 2.77

Task item: Please report the recorded TGI for CC(C)(C)c1[nH]cnc1/C=c1\[nH]c(=O)/c(=C/c2ccccc2)[nH]c1=O .
Reply: 17

###

Tested on: LOX IMVI melanoma
Experiment Summary: NCI tumour cell line growth inhibition, 48 h; in the data active = GI50 below about 0.43 µM; inactive = the rest
Outcome (select one): Yes = active, No = inactive

Would you please look over these solved cases?
Smiles | Label Value
Oc1c(CN2CCCC2)cc(COCc2ccc(Br)cc2)c2cccnc12 | Yes
CC/C(=C(/CC)c1ccc([O-])cc1)c1ccc([O-])cc1.CC/C(=C(\CC)c1ccc([O-])cc1)c1ccc([O-])cc1.O=C([CH-]C(=O)c1ccccc1)c1ccccc1.O=C([CH-]C(=O)c1ccccc1)c1ccccc1.O=C([CH-]C(=O)c1ccccc1)c1ccccc1.O=C([CH-]C(=O)c1ccccc1)c1ccccc1.[Ti+4].[Ti+4] | No
COc1ccc2c(c1)C(=O)C(=O)c1cc(O)c(OC)c(OC)c1-2 | No
O=C(Nc1cccc(Oc2nnc(Cl)c3ccccc23)c1)Nc1ccc(Cl)c(C(F)(F)F)c1 | No

Then this compound:
Task item: Dear colleague, could you share the recorded outcome for COc1cc2nccc(Oc3ccc(NC(=O)C4(C(=O)Nc5ccc(F)cc5)CC4)cc3)c2cc1Oc1ccc(N)cn1 when you have a moment?
Reply: No

###

Test system: RXF 393 renal
Experiment Summary: NCI tumour cell line growth inhibition, 48 h
If the reported TGI equals or exceeds 40 µM, assign satisfied. If not, assign not satisfied.

Would you please look over these solved cases?
Compound | Label Value
Cc1cc(=O)[nH]o1 | satisfied
O=c1c2ccccc2n2n1CC(O)C2 (stereo unspecified) | satisfied
O=[As](O)(O)c1ccc(N=Nc2ccc([As](=O)(O)O)cc2)cc1 | satisfied
O=C(c1ccc2ccccc2c1)N(Cc1cccnc1)C(=S)N(Cc1cccnc1)C(=O)c1ccc2ccccc2c1 | satisfied

Task item: Does the compound CNC(=O)c1ccc2cc(C3(O)CCn4cncc43)ccc2c1 (stereo unspecified) have recorded TGI that is 40 µM or more?
Reply: satisfied

Task item: Does the compound C[C@@H]1CC[C@@H]2[C@@H]1[C@H](OC(=O)/C=C/c1ccccc1)[C@]1(C3CCCCC3)C[C@@H](NC(=O)CO)[C@@]2(C)O1 have recorded TGI that is 40 µM or more?
Reply: not satisfied

Task item: Does the compound O=C(c1ccccc1)c1ccc(OCCOc2ccc(Nc3ccccc3)cc2)cc1 have recorded TGI that is 40 µM or more?
Reply: satisfied

Task item: Does the compound Cc1ccc2nc(-c3ccc(-n4c(C)nc(=O)c(-c5ccc(F)cc5)c4C)cc3)sc2c1 have recorded TGI that is 40 µM or more?
Reply: not satisfied

Task item: Does the compound Cc1nc2ccccc2c(=O)n1NC(=O)c1ccc([N+](=O)[O-])cc1 have recorded TGI that is 40 µM or more?
Reply: satisfied

Task item: Does the compound C/C(=N\Oc1cc(Cl)ncn1)c1ccccn1 have recorded TGI that is 40 µM or more?
Reply: satisfied

###

Test system: NCI/ADR-RES ovarian
Experiment Summary: NCI tumour cell line growth inhibition, 48 h
TGI reference

Compound | System Name | TGI
CC(=O)OC[C@@H]1[C@H]2CC[C@]3(C)[C@@H](OC(C)=O)CC[C@H]3[C@@H]2CC[C@H]1C1(C)SCCS1 | NCI/ADR-RES ovarian | > 25 µM
C=CCn1c(C23CC4CC(CC(C4)C2)C3)n[nH]c1=S | NCI/ADR-RES ovarian | > 100 µM
N#Cc1nc(COCc2ccccc2)oc1N | NCI/ADR-RES ovarian | > 100 µM
O=C(O)NCc1ccccc1 (tested in a mixture with another compound) | NCI/ADR-RES ovarian | > 90 µM
Fc1ccc(OCc2nc3cc(C(F)(F)F)ccc3nc2-c2ccccc2)cc1 | NCI/ADR-RES ovarian | > 100 µM
CN1C(=O)N/C(=C\c2ccc(S(=O)(=O)N/N=C\C(O)C(O)C(O)CO)cc2)C1=O (configuration not stated) | NCI/ADR-RES ovarian | > 100 µM
CC1CCC(O)(C(C)(C(=O)O)c2ccccc2)CC1 (configuration not stated) | NCI/ADR-RES ovarian | > 100 µM
COC(=O)C1C(OC(=O)C(Cl)(c2ccccc2)c2ccccc2)CC2CCC1N2C (configuration not stated) | NCI/ADR-RES ovarian | > 100 µM

Task item: Please report the recorded TGI for O=[N+]([O-])c1ccc2c(c1)Nc1c3ccccc3nc3cccc-2c13 .
Reply: 17.1 µM

Task item: Please report the recorded TGI for CC(C)(C#N)c1cc(F)cc(C(=O)Nc2cc(Nc3ncccc3-c3ncnc4nc[nH]c34)ccc2F)c1 .
Reply: > 10 µM

Task item: Please report the recorded TGI for O=C(O)c1ccc(-c2nc3ccc(Cl)cc3[nH]2)cc1 .
Reply: > 100 µM
